TARGET_OR_TEST_SYSTEM: CDK4/CyclinD1 (Homo sapiens)
Construct: purchased Thermofisher PR8064A
Sequence (P11802 whole entry): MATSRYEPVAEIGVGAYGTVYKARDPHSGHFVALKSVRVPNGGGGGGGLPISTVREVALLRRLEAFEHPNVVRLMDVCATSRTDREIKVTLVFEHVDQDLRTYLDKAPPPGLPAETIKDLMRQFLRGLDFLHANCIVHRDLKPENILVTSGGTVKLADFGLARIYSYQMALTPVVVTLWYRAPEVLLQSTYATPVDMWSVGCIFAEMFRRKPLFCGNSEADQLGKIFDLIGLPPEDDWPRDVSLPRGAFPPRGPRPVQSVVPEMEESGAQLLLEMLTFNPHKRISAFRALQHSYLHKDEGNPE
Sequence (P24385 whole entry partner): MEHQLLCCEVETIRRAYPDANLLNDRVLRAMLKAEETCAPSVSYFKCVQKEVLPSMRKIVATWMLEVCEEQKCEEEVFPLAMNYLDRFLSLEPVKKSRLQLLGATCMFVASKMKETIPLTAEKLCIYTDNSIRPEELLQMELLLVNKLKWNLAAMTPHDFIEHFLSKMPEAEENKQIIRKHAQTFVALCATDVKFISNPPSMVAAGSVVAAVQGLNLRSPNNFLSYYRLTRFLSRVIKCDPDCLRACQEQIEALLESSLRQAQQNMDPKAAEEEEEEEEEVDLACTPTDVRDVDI
MEASUREMENT_DESCRIPTION: Assay for inhibition of CDK4/CyclinD1 (Caliper microfluidic kinase assay)
Format: biochemical
EXPERIMENTAL_CONDITIONS: CDK4/CyclinD1, 200 μM ATP
Consider the following compounds; for each one, report its IC50.

Solved entries:
COc1nc(-c2nc(Nc3ccc(N4CCNCC4=O)cn3)ncc2F)cc2c1nc(C)n2C(C)C    < 10 nM
CC(C)c1cnn2ccc(-c3ccnc(Nc4ccc(N5CCN(S(C)(=O)=O)CCC5=O)cn4)n3)cc12    < 10 nM
CC(C)c1cnn2ccc(-c3nc(Nc4ccc(N5CCN(CC(F)(F)F)CC5=O)cn4)ncc3F)cc12    < 10 nM
CC(C)c1cnn2ccc(-c3nc(Nc4ccc(N5CCC(N(C)C)CC5=O)cn4)ncc3F)cc12 (stereo not shown)    < 10 nM
COc1nc(-c2ccnc(Nc3ccc(N4CCNCC4=O)nc3)n2)cc2c1ncn2C(C)C    < 10 nM
CC(C)c1cnn2ccc(-c3ccnc(Nc4ccc(N5CCCC(N)C5=O)cn4)n3)cc12 (stereo not shown)    < 10 nM
CC(C)c1cnn2ccc(-c3ccnc(Nc4ccc(N5CCOCC5=O)cc4F)n3)cc12    < 10 nM
Cc1nn2ccc(-c3ccnc(Nc4ccc(N5CCNCC5=O)cn4)n3)cc2c1C(C)C    < 10 nM

Fill in IC50 for each of the 5 compounds listed.
1. CNC1CCCN(c2ccc(Nc3nccc(-c4cc5c(ncn5C(C)C)c(F)n4)n3)cc2)C1=O (stereo not shown)
2. CC(C)c1cnn2ccc(-c3ccnc(Nc4ccc(N5CCCNCC5=O)cn4)n3)cc12
3. COc1nc(-c2nc(Nc3ccc(N4CCN(S(C)(=O)=O)CC4=O)cn3)ncc2F)cc2c1nc(C)n2C(C)C [Synthetic Example 127]
4. CC(C)n1cnc2c1CN(c1nc(Nc3ccc(N4CCOCC4=O)cn3)ncc1F)CC2
5. CC(C)c1cnn2ccc(-c3nc(Nc4ccc(S(N)(=O)=O)cc4)ncc3F)cc12

[out]
1: < 10 nM; 2: < 10 nM; 3: < 10 nM; 4: < 10 nM; 5: 10 to 100 nM

====

TARGET_OR_TEST_SYSTEM: CDK2/CyclinE1 (Homo sapiens, UniProt P24941)
Construct: purchased SignalChem C29-18G
MEASUREMENT_DESCRIPTION: Assay for inhibition of CDK2/CyclinE1 (Caliper microfluidic kinase assay)
Format: biochemical
EXPERIMENTAL_CONDITIONS: CDK2/CyclinE1; read-out: CDK2 IC50
pIC50: −log10 of the molar value.
Please go through the items and note down their pIC50.

Use the examples below as a reference point.
COc1nc(-c2nc(Nc3ccc(N4CCC5(CC4)CC(=O)NC5=O)cn3)ncc2F)cc2c1nc(C)n2C(C)C    < 6.00
COc1nc(-c2nc(Nc3ccc(N4CCOCC4=O)cn3)ncc2F)cc2c1nc(C)n2C(C)C    < 6.00
COc1nc(-c2ccnc(Nc3ccc(N4CC5CC4CO5)cn3)n2)cc2c1ncn2C(C)C (stereo not shown)    < 6.00
COc1nc(-c2nc(Nc3ccc(N4CCOCCC4=O)cn3)ncc2F)cc2c1nc(C)n2C(C)C    < 6.00
CCN1CCN(Cc2ccc(Nc3ncc(F)c(-c4cc5c(nc(C)n5C(C)C)c(OC)n4)n3)nc2)CC1    < 6.00
COc1nc(-c2ccnc(Nc3ccc(CN4CCC(F)(F)C4)cn3)n2)cc2c1ncn2C(C)C    < 6.00
COc1nc(-c2nc(Nc3ccc(N4CCOCC4=O)cn3)ncc2F)cc2c1ncn2C(C)C    6.00 to 7.00
COc1nc(-c2ccnc(Nc3ccc(N4CCC(N5CC(F)C5)CC4=O)cn3)n2)cc2c1ncn2C(C)C (stereo not shown)    6.00 to 7.00

Please go through the list and note pIC50 for each compound.
1. COc1nc(-c2nc(Nc3ccc(N4CCOCC4C)cn3)ncc2F)cc2c1nc(C)n2C(C)C (stereo not shown)
2. COc1nc(-c2nc(Nc3ccc(N4CC5CCC(C4)O5)cn3)ncc2F)cc2c1nc(C)n2C(C)C
3. COc1nc(-c2ccnc(Nc3ccc(N4CCOCC4)cn3)n2)cc2c1ncn2C(C)C
4. CC(C)n1cnc2c(OC(F)F)nc(-c3ccnc(Nc4ccc(N5CCC(N(C)C)CC5=O)cn4)n3)cc21 (stereo not shown)
5. COc1nc(-c2ccnc(Nc3ccc(N4CCOC(C)(C)C4)cn3)n2)cc2c1ncn2C(C)C
6. COc1nc(-c2nc(Nc3ccc(N4CCOCC4=O)cn3)ncc2F)cc2c1nc(C)n2C(C)CO (stereo not shown)

[out]
< 6.00
< 6.00
< 6.00
< 6.00
< 6.00
< 6.00

Look up pIC50 for the entries below, preserving their order.
1. CC(C)n1cnc2c(OC(F)F)nc(-c3ccnc(Nc4ccc(N5CCOCC5=O)cn4)n3)cc21
2. CCN1CC2CC1CN2c1ccc(Nc2nccc(-c3cc4c(ncn4C(C)C)c(OC)n3)n2)nc1 (stereo not shown)
3. COc1nc(-c2nc(Nc3ccc(N4CCOCC4=O)cc3F)ncc2F)cc2c1nc(C)n2C(C)C
4. COc1nc(-c2nc(Nc3ccc(N4CCCOCC4=O)cn3)ncc2F)cc2c1nc(C)n2C(C)C
5. CCN1CCN(c2ccc(Nc3ncc(F)c(-c4cc5c(nc(C)n5C(C)C)c(OC)n4)n3)nc2)C1=O
6. COc1nc(-c2ccnc(Nc3ccc(N4CCC(N5CCC5)CC4=O)cn3)n2)cc2c1ncn2C(C)C (stereo not shown)
7. COc1nc(-c2ccnc(Nc3ccc(N4CCOCC4=O)cn3)n2)cc2c1nc(C)n2C(C)C

[out]
["6.00 to 7.00", "< 6.00", "7.00 to 8.00", "< 6.00", "< 6.00", "7.00 to 8.00", "6.00 to 7.00"]

Dear colleague, could you send me pIC50 for each of the items below? Thanks.
1. COc1nc(-c2ccnc(Nc3ccc(CN4CCC(C#N)CC4)cn3)n2)cc2c1ncn2C(C)C
2. COc1nc(-c2ccnc(Nc3ccc(N4CCC(N5CCOCC5)CC4=O)cn3)n2)cc2c1ncn2C(C)C (stereo not shown)
3. COc1nc(-c2ccnc(Nc3ccc(N4CCOC(C)C4)cn3)n2)cc2c1ncn2C(C)C (stereo not shown)
4. COc1nc(-c2nc(Nc3ccc(N4CCCC4=O)cn3)ncc2F)cc2c1nc(C)n2C(C)C
5. COc1nc(-c2ccnc(Nc3ccc(CN4CCC(C#N)C4)cn3)n2)cc2c1ncn2C(C)C (stereo not shown)
6. COc1nc(-c2ccnc(Nc3ccc(N4CCC(C)(N)CC4=O)cn3)n2)cc2c1ncn2C(C)C (stereo not shown)
7. COc1nc(-c2ccnc(Nc3ccc(CN4CCOCC4)cn3)n2)cc2c1ncn2C(C)C
8. CCN1CCN(c2ccc(Nc3ncc(F)c(-c4cc5c(nc(C)n5C(C)C)c(OC)n4)n3)nc2)CC1=O

[out]
1. < 6.00
2. 6.00 to 7.00
3. < 6.00
4. 6.00 to 7.00
5. < 6.00
6. 6.00 to 7.00
7. < 6.00
8. < 6.00

Below are 2 compounds. Give each one its pIC50.
1. COc1nc(-c2nc(Nc3ccc(C(=O)N4CCC(NC5CC5)CC4)c(C)n3)ncc2F)cc2c1nc(C)n2C(C)C
2. COc1nc(-c2nc(Nc3ccc(N4CCC(N(C)C)CC4)cn3)ncc2F)cc2c1nc(C)n2C(C)C

[out]
< 6.00
< 6.00

====

System: phosphorylation of Retinoblastoma Protein (pRb Ser807/811 or Ser780) in T47D cells
MEASUREMENT_DESCRIPTION: Inhibition of phosphorylation of retinoblastoma protein (pRb) in T47D cell (ELISA)
Type: cell-based, human
EXPERIMENTAL_CONDITIONS: Homo sapiens, T47D, read-out: Phospho T47D Ser807 IC50, pRb Ser807 phosphorylation, T47D cells
Experimental: T47D breast cancer cells from American Type Culture Collection (ATCC, HTB-133) were plated at 40,000 cells/well in 96-well plates, and were incubated in RPMI 1640 medium (Gibco, 31800105) with 10% Fetal Bovine Serum (FBS, Biowest, FB-1058). […] Plates were read on the Envision plate reader (PerkinElmer, 2104-0010) using the 96-well […] mode. IC50 values were calculated using 4 parameter sigmoidal dose-response model of Xlfit5/GraphPad Prism 5 software.
READOUT_LABEL: IC50

Cc1nn2ccc(-c3ccnc(Nc4ccc(N5CCNCC5=O)cn4)n3)cc2c1C(C)C [compound 192]    < 100 nM
CC(C)c1cnn2ccc(-c3ccnc(Nc4ccn(CC5CCN(C(=O)CC#N)CC5)n4)n3)cc12 [compound 56]    100 to 500 nM
CC(C)c1cnn2ccc(-c3ccnc(Nc4ccc(N5CCCNC5=O)cn4)n3)cc12 [Synthetic Example 1]    < 100 nM
CC(C)c1cnn2ccc(-c3ccnc(Nc4ccc(S(N)(=O)=O)cc4)n3)cc12 [compound 165]    100 to 500 nM
CC(C)c1cnn2c(C#N)cc(-c3ccnc(Nc4ccc(N5CCNCC5=O)cn4)n3)cc12 [compound 38]    500 to 1000 nM

Provide the reported IC50 of each entry below, same order.
1. CC(C)n1cnc2c1CN(c1ccnc(Nc3ccc(N4CCOCC4=O)cn3)n1)CC2 [Synthetic Example 57]
2. CC(C)c1cnn2ccc(-c3nc(Nc4ccc(N5CCNCC5=O)cn4)ncc3F)cc12 [Synthetic Example 29]
3. COc1nc(-c2nc(Nc3ccc(N4CCN(CCF)CC4=O)cn3)ncc2F)cc2c1ncn2C(C)C [compound 126]

[out]
1. < 100 nM
2. < 100 nM
3. 100 to 500 nM
